Where do the numbers come from? From patent US10294212B2.

Target: IDO1 in HeLa cells (Homo sapiens (Human))
Sequence (P14902 whole entry): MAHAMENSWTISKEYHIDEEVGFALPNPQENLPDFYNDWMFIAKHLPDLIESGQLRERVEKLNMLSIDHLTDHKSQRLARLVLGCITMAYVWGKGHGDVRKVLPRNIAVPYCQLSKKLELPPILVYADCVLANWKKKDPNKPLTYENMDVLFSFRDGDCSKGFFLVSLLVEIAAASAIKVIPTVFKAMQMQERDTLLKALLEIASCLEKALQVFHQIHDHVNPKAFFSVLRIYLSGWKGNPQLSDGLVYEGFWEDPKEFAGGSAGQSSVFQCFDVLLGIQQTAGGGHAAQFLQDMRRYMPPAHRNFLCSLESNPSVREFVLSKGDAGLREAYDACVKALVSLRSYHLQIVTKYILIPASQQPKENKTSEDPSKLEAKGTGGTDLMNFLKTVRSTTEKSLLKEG
Experiment: HeLa cell based IDO1 assay (IFNγ-induced, KYN in supernatant)
Measurement label: IC50

>  <Molecule>
COc1cc2c(Nc3ccc(F)c(Cl)c3)c(N)oc2c(I)n1

>  <Reported value>
< 200 nM

$$$$
>  <Molecule>
Cc1cccc(Nc2c(N)sc3ccccc23)c1C

>  <Reported value>
200 to 1000 nM

$$$$
>  <Molecule>
Nc1oc2cnc(F)cc2c1Nc1cccc(C(F)(F)F)c1

>  <Reported value>
< 200 nM

$$$$
>  <Molecule>
Cc1cc(-c2nccc3c(Nc4ccc(F)c(C(F)(F)F)c4)c(N)oc23)ccn1

>  <Reported value>
< 200 nM

$$$$

Now consider the entry below.
Asked: Annotate the compound `Cc1cc(-c2cccc3c(Nc4cccc(Cl)c4)c(N)sc23)ccn1` with its measured IC50.
Given back: < 200 nM

* * *

Recorded IC50, one value per entry.
Target: Human TDO (hTDO)-transfected CHO-K1 cells (Homo sapiens (Human), UniProt P48775)
Sequence (P48775 whole entry): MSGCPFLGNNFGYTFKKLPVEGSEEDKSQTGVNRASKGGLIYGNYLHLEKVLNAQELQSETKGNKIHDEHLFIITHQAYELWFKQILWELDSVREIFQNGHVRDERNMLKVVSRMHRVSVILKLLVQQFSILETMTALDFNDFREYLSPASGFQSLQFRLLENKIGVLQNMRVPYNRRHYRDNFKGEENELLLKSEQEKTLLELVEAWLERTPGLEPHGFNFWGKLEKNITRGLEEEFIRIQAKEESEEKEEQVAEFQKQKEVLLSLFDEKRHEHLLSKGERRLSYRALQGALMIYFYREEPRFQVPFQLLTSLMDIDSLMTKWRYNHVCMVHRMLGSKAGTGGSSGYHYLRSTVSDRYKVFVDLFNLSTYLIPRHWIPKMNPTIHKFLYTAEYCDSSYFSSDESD
Assay: CHO-K1 cell based TDO assay
Conditions: hTDO cellular assay

>  <Molecule>
CCOC(=O)Nc1oc2c(-c3cc(C)nc(C)c3)nccc2c1Nc1ccc(F)c(Cl)c1

>  <IC50>
> 2 µM

$$$$
>  <Molecule>
Nc1sc2c(-c3ccccc3)cccc2c1Nc1ccc(F)c(Cl)c1

>  <IC50>
> 2 µM

$$$$
>  <Molecule>
Nc1oc2c(Cl)nccc2c1Nc1ccc(F)c(Cl)c1

>  <IC50>
< 0.5 µM

$$$$
>  <Molecule>
Cc1cc(-c2nc(F)cc3c(Nc4ccc(F)c(Cl)c4)c(N)oc23)ccn1

>  <IC50>
0.5 to 2 µM

$$$$
>  <Molecule>
CCCCNC(=O)c1cc(-c2nccc3c(Nc4ccc(F)c(Cl)c4)c(N)oc23)ccn1

>  <IC50>
> 2 µM

$$$$
>  <Molecule>
Nc1oc2cnccc2c1Nc1cccc(F)c1

>  <IC50>
0.5 to 2 µM

$$$$
>  <Molecule>
Cc1cc(-c2nccc3c(Nc4ccc(F)cc4)c(N)oc23)ccn1

>  <IC50>
< 0.5 µM

$$$$
>  <Molecule>
Nc1oc2c(N(c3ccccc3)c3ccccc3)nccc2c1Nc1ccc(F)c(Cl)c1

>  <IC50>
> 2 µM

$$$$
>  <Molecule>
Nc1oc2c(I)nccc2c1Nc1ccc(F)c(Cl)c1

>  <IC50>
< 0.5 µM

$$$$
>  <Molecule>
CCc1cc2c(Nc3ccc(F)c(Cl)c3)c(N)oc2c(-c2ccccc2)n1

>  <IC50>
> 2 µM

$$$$

Asked: Annotate the molecule `Nc1oc2cnccc2c1Nc1ccc(Oc2ccccc2)cc1` with its measured IC50.
Given back: > 2 µM

Asked: Annotate the molecule `CC(C)c1cccc(Nc2c(N)oc3cnccc23)c1` with its measured IC50.
Given back: > 2 µM

Asked: Annotate the molecule `Cc1cc(-c2nccc3c(Nc4cccc(Cl)c4)c(N)oc23)ccn1` with its measured IC50.
Given back: 0.5 to 2 µM

* * *

Target: Human TDO (hTDO)-transfected CHO-K1 cells (Homo sapiens (Human))
Test: CHO-K1 cell based TDO assay
Details: hTDO cellular assay
Recorded IC50, one value per entry.

Below: 5 molecules and their reported IC50.
>  <Molecule>
CCc1nccc2c(Nc3ccc(F)c(C(F)(F)F)c3)c(N)oc12

>  <Reported value>
> 2 µM

$$$$
>  <Molecule>
Nc1oc2c(-c3ccncc3)nccc2c1Nc1ccc(F)c(F)c1

>  <Reported value>
< 0.5 µM

$$$$
>  <Molecule>
Nc1oc2cnccc2c1Nc1ccc(Cl)cc1Cl

>  <Reported value>
> 2 µM

$$$$
>  <Molecule>
Nc1oc2cncc(Cl)c2c1Nc1ccc(F)c(Cl)c1

>  <Reported value>
0.5 to 2 µM

$$$$
>  <Molecule>
Cc1cc(C)cc(-c2nccc3c(Nc4ccc(F)c(Cl)c4)c(N)oc23)c1

>  <Reported value>
0.5 to 2 µM

$$$$

Asked: Annotate the molecule `Cc1cc(-c2nccc3c(Nc4ccccc4Cl)c(N)oc23)ccn1` with its measured IC50.
Given back: 0.5 to 2 µM

Asked: Annotate the molecule `CNC(=O)c1cc(-c2nccc3c(Nc4ccc(F)cc4)c(N)oc23)ccn1` with its measured IC50.
Given back: < 0.5 µM

Asked: Annotate the molecule `CNC(=O)c1cc(-c2nccc3c(Nc4ccc(F)c(C(F)(F)F)c4)c(N)oc23)ccn1` with its measured IC50.
Given back: > 2 µM

Asked: Annotate the molecule `Cc1cccc(Nc2c(N)sc3ccccc23)c1C` with its measured IC50.
Given back: 0.5 to 2 µM
